Molecular target: RORγt (Homo sapiens)
Construct: The plasmid of pFN26A-RORγt-LBD and pG14.35 (Promega, Cat. No. E1370) were co-transfected into HEK 293 cells
Sequence (P51449 269-508 limits assumed): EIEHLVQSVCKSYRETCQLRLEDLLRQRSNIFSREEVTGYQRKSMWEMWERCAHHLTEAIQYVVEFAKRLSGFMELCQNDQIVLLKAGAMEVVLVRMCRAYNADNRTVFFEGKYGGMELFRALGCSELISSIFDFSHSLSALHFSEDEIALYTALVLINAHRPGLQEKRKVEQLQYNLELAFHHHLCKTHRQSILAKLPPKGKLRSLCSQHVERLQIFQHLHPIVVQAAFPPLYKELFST
Assay: RORγt cellular reporter gene detection assay
Details: HEK 293 cells co-transfected with pFN26A-RORγt-LBD and pG14.35, in presence of antagonist Ursolic acid, 24 hrs; top concentration 50 μM
ENDPOINT_NAME: EC50 (µM)

In the examples that follow, each entry is paired with its recorded EC50.
INSERT INTO assay_data (molecule, assayed_target, endpoint_name, readout_number) VALUES
  ('CC1(C)C=C(c2ccc3c(c2)N(S(=O)(=O)c2cccc(C(F)(F)F)c2)C[C@@H]2CN(C(=O)CC#N)CCN32)CC(C)(C)O1 [Example 31]', 'RORγt (Homo sapiens)', 'EC50', 0.419),
  ('O=S(=O)(c1cccc(C(F)(F)F)c1)N1C[C@@H]2CN(C[C@@H](O)CO)CCN2c2ccc(/C=C/c3c(Cl)cccc3C(F)(F)F)cc21 [Example 35]', 'RORγt (Homo sapiens)', 'EC50', 0.467),
  ('O=S(=O)(c1cccc(C(F)(F)F)c1)N1CC2C[S+]([O-])CCN2c2ccc(-c3cc(F)cc(OC(F)F)c3)cc21 (stereo not shown) [Example 101]', 'RORγt (Homo sapiens)', 'EC50', 0.913),
  ('C[C@@]1(OCCC(=O)O)CCN2c3ccc(-c4cc(F)cc(OC(F)F)c4)cc3N(S(=O)(=O)c3cccc(C(F)(F)F)c3)C[C@@H]2C1 [Example 113]', 'RORγt (Homo sapiens)', 'EC50', 0.149),
  ('CC1(C)C=C(c2ccc3c(c2)N(S(=O)(=O)c2cccc(C(F)(F)F)c2)C[C@@H]2CNCCN32)CC(C)(C)O1 [Example 13]', 'RORγt (Homo sapiens)', 'EC50', 1.42);

(1) NC(=O)C1(N2CCN3c4ccc(-c5cc(F)cc(OC(F)F)c5)cc4N(S(=O)(=O)c4cccc(C(F)(F)F)c4)C[C@@H]3C2)CCC1 [Example 80]
(2) C[C@@]1(O)CCN2c3ccc(-c4cc(F)cc(OC(F)F)c4)cc3N(S(=O)(=O)c3cccc(C(F)(F)F)c3)C[C@@H]2C1 [Example 107]
IN: # min-compare on EC50 between 1 and 2 To answer, give the label that identifies your chosen option.
OUT: 1
